Cited source for all entries: patent US20140193915

Please go through the items and note down their activity.
- Measured target: T1, sN-TALER IV-2 (GinH106Y-TALE13) (synthetic)
- T1 chain: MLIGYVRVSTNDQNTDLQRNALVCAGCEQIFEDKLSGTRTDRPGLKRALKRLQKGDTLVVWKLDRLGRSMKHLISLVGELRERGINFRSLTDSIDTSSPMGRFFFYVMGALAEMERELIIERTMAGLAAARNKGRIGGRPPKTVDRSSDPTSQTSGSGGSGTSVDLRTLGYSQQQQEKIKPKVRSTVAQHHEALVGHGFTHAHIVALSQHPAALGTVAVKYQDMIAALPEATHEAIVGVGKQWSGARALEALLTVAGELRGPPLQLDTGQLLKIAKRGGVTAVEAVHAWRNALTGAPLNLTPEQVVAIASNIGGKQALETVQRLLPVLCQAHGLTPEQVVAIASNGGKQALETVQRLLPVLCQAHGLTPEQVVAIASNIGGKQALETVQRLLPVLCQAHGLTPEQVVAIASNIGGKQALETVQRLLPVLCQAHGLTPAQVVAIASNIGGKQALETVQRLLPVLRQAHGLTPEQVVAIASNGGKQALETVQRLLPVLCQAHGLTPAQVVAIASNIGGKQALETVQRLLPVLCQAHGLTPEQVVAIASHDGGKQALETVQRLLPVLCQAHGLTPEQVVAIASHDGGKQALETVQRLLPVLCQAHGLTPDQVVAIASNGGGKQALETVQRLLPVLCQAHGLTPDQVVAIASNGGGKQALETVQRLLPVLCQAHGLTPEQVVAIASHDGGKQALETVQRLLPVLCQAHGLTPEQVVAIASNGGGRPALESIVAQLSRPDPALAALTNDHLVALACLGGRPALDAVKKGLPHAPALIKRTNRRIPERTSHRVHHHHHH
- Protocol description: cell_activity; E. coli
- Reported conditions: tags: 6-His
Give bare numbers, in score.

Gin20TALE+0 (dsDNA) DNA 1: AGAAGGTATTTATATCCAAAACCATGGTTTACAGTATAAATACCTTCT DNA 2: AGAAGGTATTTATACTGTAAACCATGGTTTTGGATATAAATACCTTCT
1

// each binder listed below needs its activity
1. Gin20TALE+12 (dsDNA) DNA 1: AGAAGGTATTTATATAGGCACACTTATCCAAAACCATGGTTTACAGGACCACACGGTATATAAATACCTTCT DNA 2: AGAAGGTATTTATATACCGTGTGGTCCTGTAAACCATGGTTTTGGATAAGTGTGCCTATATAAATACCTTCT
2. Gin20TALE+4 (dsDNA) DNA 1: AGAAGGTATTTATATATATCCAAAACCATGGTTTACAGGCTATATAAATACCTTCT DNA 2: AGAAGGTATTTATATAGCCTGTAAACCATGGTTTTGGATATATATAAATACCTTCT
3. Gin18TALE+0 (dsDNA) DNA 1: AGAAGGTATTTATACCAAAACCATGGTTTACATATAAATACCTTCT DNA 2: AGAAGGTATTTATATGTAAACCATGGTTTTGGTATAAATACCTTCT
4. Gin20TALE+10 (dsDNA) DNA 1: AGAAGGTATTTATATAGGCACTTATCCAAAACCATGGTTTACAGGACCACGGTATATAAATACCTTCT DNA 2: AGAAGGTATTTATATACCGTGGTCCTGTAAACCATGGTTTTGGATAAGTGCCTATATAAATACCTTCT
5. Gin20TALE+3 (dsDNA) DNA 1: AGAAGGTATTTATATAATCCAAAACCATGGTTTACAGGTATATAAATACCTTCT DNA 2: AGAAGGTATTTATATACCTGTAAACCATGGTTTTGGATTATATAAATACCTTCT
6. Gin20TALE+1 (dsDNA) DNA 1: AGAAGGTATTTATATTCCAAAACCATGGTTTACAGATATAAATACCTTCT DNA 2: AGAAGGTATTTATATCTGTAAACCATGGTTTTGGAATATAAATACCTTCT

1
4
1
1
3
1
